biological target: human 5-HT5A receptor (Homo sapiens)
Sequence (P47898 whole entry): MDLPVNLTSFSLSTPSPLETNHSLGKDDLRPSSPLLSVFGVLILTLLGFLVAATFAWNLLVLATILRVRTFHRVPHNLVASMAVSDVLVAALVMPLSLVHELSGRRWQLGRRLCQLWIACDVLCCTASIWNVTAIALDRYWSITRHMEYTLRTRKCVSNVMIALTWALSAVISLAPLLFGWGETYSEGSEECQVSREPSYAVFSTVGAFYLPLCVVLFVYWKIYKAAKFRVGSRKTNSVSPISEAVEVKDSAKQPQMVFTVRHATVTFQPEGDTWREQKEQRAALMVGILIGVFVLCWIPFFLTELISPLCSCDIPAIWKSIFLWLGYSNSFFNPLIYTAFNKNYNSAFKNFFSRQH
pKi: −log10 of the molar value.
Quick reference: pKi of the listed items.

>>> assay_value("Cc1c(-c2cccc3ccc(C(=O)N=C(N)N)cc23)ncnc1C1CC1 [Example 193]")
"6.52 to 7.52"

The recorded pKi for NC(N)=NC(=O)c1ccc2cccc(-c3ccccn3)c2c1 [Example 201] is 7.52 to 8.52

Per the record, NC(N)=NC(=O)c1ccc2cccc(-c3ccc(Cl)cc3)c2c1 [Example 89] has pKi of 8.52 to 9.52

In plain terms, COc1nc(C)ccc1-c1c(Cl)ccc2ccc(C(=O)N=C(N)N)cc12 [Example 174] has a documented pKi of 8.52 to 9.52
